# TEST: Antioxidant activity assessed as ABTS radical scavenging activity after 20 mins
# Type: functional
pIC50: −log10 of the molar value.
REPORTED METRIC: pIC50

Examples with answers:
{"COMPOUND SMILES": "O=C(N/N=C\\c1c(O)cc(O)cc1/C=C/c1ccc(O)cc1)c1ccncc1", "pIC50": 4.87}
{"COMPOUND SMILES": "O=C(N/N=C\\c1c(O)cc(O)cc1/C=C/c1ccc(O)cc1)c1cccc(F)c1", "pIC50": 4.90}
{"COMPOUND SMILES": "O=C(N/N=C\\c1c(O)cc(O)cc1/C=C/c1ccc(O)cc1)c1ccc(F)cc1", "pIC50": 4.80}
{"COMPOUND SMILES": "O=C(N/N=C\\c1c(O)cc(O)cc1/C=C/c1ccc(O)cc1)c1cccc(Cl)c1", "pIC50": 4.82}
{"COMPOUND SMILES": "Cc1ccccc1C(=O)N/N=C\\c1c(O)cc(O)cc1/C=C/c1ccc(O)cc1", "pIC50": 4.76}

P. N#Cc1ccc(C(=O)N/N=C\c2c(O)cc(O)cc2/C=C/c2ccc(O)cc2)cc1
Q. Nc1ccc(C(=O)N/N=C\c2c(O)cc(O)cc2/C=C/c2ccc(O)cc2)cc1
In terms of reported pIC50, does P or Q have the smaller number? Pick one and reply with its label.
P

# credit: ChEMBL document CHEMBL5543081
